Values were extracted from patent US20240092835A1.

Tested on: NKG2A−/NKG2C− NK cells
Assay: NK cell activation markers in control NKG2A-/NKG2C- NK cells incubated with peptide and K562 expressing HLA-E
Assay type: cell-based, human
Settings: Trial 1
Method: A human immortalized myelogenous leukemia cell line (K562), which expresses HLA-E was incubated with novel peptides (Table 1) derived from the human proteome or human cytomegalovirus proteome. […] Controls assessments were also performed using NKG2A−/NKG2C− cells (Tables 10-13). Inhibition was indicated by a decrease in percent cells positive for cell surface markers, while activation was indicated by an increase in percent cells positive for cell surface markers.
Where no end group is shown, it is not given here.
Recorded percentage CCL3+ NK cells values for a group of sequences are listed next.
ATTRIBUTE_MEASURED: percentage CCL3+ NK cells (%)

SEQUENCE_TEXT: VMAPRTLIL [VMAPRTLIL (LIL), positive control peptide, reference compound]
EXPERIMENTAL_RESULT: 31.4
--
SEQUENCE_TEXT: VMAPQSLLL [VMAPQSLLL (PQS), negative control peptide, reference compound]
EXPERIMENTAL_RESULT: 35.1
--
SEQUENCE_TEXT: TGPWRSLWI [human3, TGPWRSLWI]
EXPERIMENTAL_RESULT: 38.1
--
SEQUENCE_TEXT: NMPARTVLF [human14, peptide MTREX 490-498 derived from the human proteome]
EXPERIMENTAL_RESULT: 29.3
--
SEQUENCE_TEXT: VLPHRTQFL [CMV1, novel CMV-derived peptide UL120 72-80, Merlin]
EXPERIMENTAL_RESULT: 29.9

* * *

Each record here notes measured Binding of peptide-HLA-E complexes to CD94/NKG2C normalized to a theoretical Rmax.
Target: CD94/NKG2C (Homo sapiens, UniProt P26717+Q13241)
Sequence (P26717 94-231 limits assumed): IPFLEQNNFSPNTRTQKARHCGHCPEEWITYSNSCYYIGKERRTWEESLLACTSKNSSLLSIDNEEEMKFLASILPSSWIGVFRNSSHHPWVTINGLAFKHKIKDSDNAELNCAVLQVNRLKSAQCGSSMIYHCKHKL
Sequence (Q13241 32-179 limits assumed): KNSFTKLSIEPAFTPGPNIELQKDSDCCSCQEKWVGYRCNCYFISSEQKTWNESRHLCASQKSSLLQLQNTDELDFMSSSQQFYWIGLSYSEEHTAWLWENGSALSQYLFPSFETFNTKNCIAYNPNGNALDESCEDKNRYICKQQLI
Assay: Steady-state surface plasmon resonance of peptide-HLA-E complex with CD94/NKG2C
Assay type: binding
Settings: steady-state SPR; CD94/NKG2C analyte concentration 0.1 μM
Procedure: Binding affinity of novel peptides linked to HLA-E was determined using surface plasmon resonance (SPR), a methodology used to study protein-protein interactions (Tables 15-19). […] KD values calculated by Biacore software are reported. Rmax, fit values were calculated by Biacore software. Rmax, theoretical values were calculated using the analyte/ligand mass ratio (0.66) multiplied by the amount of ligand coupled to the chip.
Where no end group is shown, it is not given here.
ATTRIBUTE_MEASURED: Binding of peptide-HLA-E complexes to CD94/NKG2C normalized to a theoretical Rmax

SEQUENCE_TEXT: TLPKRGLFL [human2, TLPKRGLFL]
EXPERIMENTAL_RESULT: 0.002

SEQUENCE_TEXT: TGPWRSLWI [human3, TGPWRSLWI]
EXPERIMENTAL_RESULT: 0.003

SEQUENCE_TEXT: TAPARTMFL [human13, TAPARTMFL]
EXPERIMENTAL_RESULT: 0.012

SEQUENCE_TEXT: QMPSRSLLF [human1, QMPSRSLLF]
EXPERIMENTAL_RESULT: 0.004

SEQUENCE_TEXT: VNPGRSLFL [human5, VNPGRSLFL]
EXPERIMENTAL_RESULT: 0.024

* * *

System: NKG2A−/NKG2C− NK cells
Experiment: NK cell activation markers in control NKG2A-/NKG2C- NK cells incubated with peptide and K562 expressing HLA-E
Type: cell-based, human
Conditions: Trial 4
Where no end group is shown, it is not given here.
// label = Condition met if percentage of IFNG+ NK cells is not less than 20%, otherwise Condition not met

SEQUENCE_TEXT: TGPWRSLWI [human3, TGPWRSLWI]
ASSIGNED_CATEGORY: Condition met

SEQUENCE_TEXT: NMPARTVLF [human14, peptide MTREX 490-498 derived from the human proteome]
ASSIGNED_CATEGORY: Condition not met

SEQUENCE_TEXT: VMAPRTLIL [VMAPRTLIL (LIL), positive control peptide, reference compound]
ASSIGNED_CATEGORY: Condition not met

SEQUENCE_TEXT: ILTDRSLWL [human4, peptide FBXO41 670-678 derived from the human proteome]
ASSIGNED_CATEGORY: Condition not met

SEQUENCE_TEXT: QMPSRSLLF [human1, QMPSRSLLF]
ASSIGNED_CATEGORY: Condition not met

SEQUENCE_TEXT: VLPHRTQFL [CMV1, novel CMV-derived peptide UL120 72-80, Merlin]
ASSIGNED_CATEGORY: Condition not met

SEQUENCE_TEXT: VMAPQSLLL [VMAPQSLLL (PQS), negative control peptide, reference compound]
ASSIGNED_CATEGORY: Condition not met

SEQUENCE_TEXT: TLPKRGLFL [human2, TLPKRGLFL]
ASSIGNED_CATEGORY: Condition not met

SEQUENCE_TEXT: TLPERTLYL [human7, peptide ECEL1 269-277 derived from the human proteome]
ASSIGNED_CATEGORY: Condition not met

SEQUENCE_TEXT: FLPNRSLLF [human8, peptide SLC52A3 354-362 derived from the human proteome]
ASSIGNED_CATEGORY: Condition not met

SEQUENCE_TEXT: TAPARTMFL [human13, TAPARTMFL]
ASSIGNED_CATEGORY: Condition met

SEQUENCE_TEXT: VMPGRTLCF [human11, peptide TACR3 226-234 derived from the human proteome]
ASSIGNED_CATEGORY: Condition not met

SEQUENCE_TEXT: VNPGRSLFL [human5, VNPGRSLFL]
ASSIGNED_CATEGORY: Condition not met

* * *

Molecular target: CD94/NKG2A (Homo sapiens, UniProt P26715+Q13241)
Sequence (P26715 94-233 limits assumed): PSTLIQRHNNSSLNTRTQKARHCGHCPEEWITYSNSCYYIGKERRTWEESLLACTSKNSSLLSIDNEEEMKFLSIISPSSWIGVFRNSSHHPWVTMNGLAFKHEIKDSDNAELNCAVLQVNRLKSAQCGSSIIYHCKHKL
Sequence (Q13241 32-179 limits assumed): as the sequence (Q13241 32-179 limits assumed) above
Experiment: Steady-state surface plasmon resonance of peptide-HLA-E complex with CD94/NKG2A
Assay type: binding
Conditions: steady-state SPR; CD94/NKG2A analyte concentration 3.200 μM
Where no end group is shown, it is not given here.
Listed here are sequences together with their documented Binding of peptide-HLA-E complexes to CD94/NKG2A normalized to a theoretical Rmax.
ATTRIBUTE_MEASURED: Binding of peptide-HLA-E complexes to CD94/NKG2A normalized to a theoretical Rmax

SEQUENCE_TEXT: QMPSRSLLF [human1, QMPSRSLLF]
STUDY_SYSTEM: CD94/NKG2A (Homo sapiens, UniProt P26715+Q13241)
EXPERIMENTAL_RESULT: 0.365
//
SEQUENCE_TEXT: TGPWRSLWI [human3, TGPWRSLWI]
STUDY_SYSTEM: CD94/NKG2A (Homo sapiens, UniProt P26715+Q13241)
EXPERIMENTAL_RESULT: 0.044
//
SEQUENCE_TEXT: VNPGRSLFL [human5, VNPGRSLFL]
STUDY_SYSTEM: CD94/NKG2A (Homo sapiens, UniProt P26715+Q13241)
EXPERIMENTAL_RESULT: 0.360
//
SEQUENCE_TEXT: TLPKRGLFL [human2, TLPKRGLFL]
STUDY_SYSTEM: CD94/NKG2A (Homo sapiens, UniProt P26715+Q13241)
EXPERIMENTAL_RESULT: 0.339
//
SEQUENCE_TEXT: TAPARTMFL [human13, TAPARTMFL]
STUDY_SYSTEM: CD94/NKG2A (Homo sapiens, UniProt P26715+Q13241)
EXPERIMENTAL_RESULT: 0.193

* * *

The entries below are paired with their reported Binding of peptide-HLA-E complexes to CD94/NKG2A normalized to a theoretical Rmax.
Molecular target: CD94/NKG2A (Homo sapiens, UniProt P26715+Q13241)
Assay: Steady-state surface plasmon resonance of peptide-HLA-E complex with CD94/NKG2A
Type: binding
Conditions: steady-state SPR; CD94/NKG2A analyte concentration 12.800 μM
Protocol: Binding affinity of novel peptides linked to HLA-E was determined using surface plasmon resonance (SPR), a methodology used to study protein-protein interactions (Tables 15-19). […] KD values calculated by Biacore software are reported. Rmax, fit values were calculated by Biacore software. Rmax, theoretical values were calculated using the analyte/ligand mass ratio (0.66) multiplied by the amount of ligand coupled to the chip.
Where no end group is shown, it is not given here.
ATTRIBUTE_MEASURED: Binding of peptide-HLA-E complexes to CD94/NKG2A normalized to a theoretical Rmax

SEQUENCE_TEXT: VNPGRSLFL [human5, VNPGRSLFL]
STUDY_SYSTEM: CD94/NKG2A (Homo sapiens, UniProt P26715+Q13241)
EXPERIMENTAL_RESULT: 0.425
//
SEQUENCE_TEXT: QMPSRSLLF [human1, QMPSRSLLF]
STUDY_SYSTEM: CD94/NKG2A (Homo sapiens, UniProt P26715+Q13241)
EXPERIMENTAL_RESULT: 0.577
//
SEQUENCE_TEXT: TLPKRGLFL [human2, TLPKRGLFL]
STUDY_SYSTEM: CD94/NKG2A (Homo sapiens, UniProt P26715+Q13241)
EXPERIMENTAL_RESULT: 0.577
//
SEQUENCE_TEXT: TGPWRSLWI [human3, TGPWRSLWI]
STUDY_SYSTEM: CD94/NKG2A (Homo sapiens, UniProt P26715+Q13241)
EXPERIMENTAL_RESULT: 0.102
//
SEQUENCE_TEXT: TAPARTMFL [human13, TAPARTMFL]
STUDY_SYSTEM: CD94/NKG2A (Homo sapiens, UniProt P26715+Q13241)
EXPERIMENTAL_RESULT: 0.357
